tested on: Angiotensin-converting enzyme (Rattus norvegicus) (UniProt P47820)
Sequence (whole entry): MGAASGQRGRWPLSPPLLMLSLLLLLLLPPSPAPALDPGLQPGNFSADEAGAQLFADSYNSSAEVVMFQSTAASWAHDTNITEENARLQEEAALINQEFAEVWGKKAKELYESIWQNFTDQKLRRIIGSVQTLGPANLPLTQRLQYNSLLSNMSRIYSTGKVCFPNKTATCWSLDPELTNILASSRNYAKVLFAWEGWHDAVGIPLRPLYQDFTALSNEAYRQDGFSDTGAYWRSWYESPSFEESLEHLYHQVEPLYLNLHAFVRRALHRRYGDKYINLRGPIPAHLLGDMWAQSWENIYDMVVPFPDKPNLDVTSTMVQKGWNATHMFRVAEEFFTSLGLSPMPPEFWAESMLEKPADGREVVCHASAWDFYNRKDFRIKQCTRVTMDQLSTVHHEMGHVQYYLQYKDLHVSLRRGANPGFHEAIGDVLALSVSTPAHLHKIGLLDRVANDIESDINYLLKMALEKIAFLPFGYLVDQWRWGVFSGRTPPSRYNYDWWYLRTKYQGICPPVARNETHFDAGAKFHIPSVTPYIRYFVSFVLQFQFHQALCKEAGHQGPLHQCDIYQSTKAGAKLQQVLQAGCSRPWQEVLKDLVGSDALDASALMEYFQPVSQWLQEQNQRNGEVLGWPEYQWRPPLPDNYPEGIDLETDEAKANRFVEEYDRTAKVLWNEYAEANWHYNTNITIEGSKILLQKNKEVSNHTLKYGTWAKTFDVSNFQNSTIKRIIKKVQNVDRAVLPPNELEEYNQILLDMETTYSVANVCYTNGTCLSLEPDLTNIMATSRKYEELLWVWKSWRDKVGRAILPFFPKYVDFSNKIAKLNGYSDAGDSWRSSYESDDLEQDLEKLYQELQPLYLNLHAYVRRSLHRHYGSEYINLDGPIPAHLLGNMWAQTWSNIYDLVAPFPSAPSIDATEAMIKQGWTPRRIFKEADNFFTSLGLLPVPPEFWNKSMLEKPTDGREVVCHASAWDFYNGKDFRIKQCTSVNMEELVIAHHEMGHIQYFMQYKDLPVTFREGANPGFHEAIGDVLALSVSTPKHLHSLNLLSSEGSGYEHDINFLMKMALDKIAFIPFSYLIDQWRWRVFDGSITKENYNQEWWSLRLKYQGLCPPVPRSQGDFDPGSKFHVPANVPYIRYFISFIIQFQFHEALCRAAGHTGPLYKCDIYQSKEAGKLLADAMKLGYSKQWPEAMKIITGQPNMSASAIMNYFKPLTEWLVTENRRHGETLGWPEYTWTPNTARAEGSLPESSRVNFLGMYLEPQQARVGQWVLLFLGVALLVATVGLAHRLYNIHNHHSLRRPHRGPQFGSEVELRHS
method: Evaluation of plasma inhibition of Angiotensin I converting enzyme activity in conscious rat 2 hours after intravenous administration at a dose of 10 mg/kg
Assay type: functional, organism-based
Design: dose 10 mg/kg
result type: inhibition (%)

# annotated cases, reported inhibition shown
smiles text: CC(C)[C@H](S)C(=O)NC1(C(=O)N[C@@H](Cc2ccc(O)cc2)C(=O)O)CCCC1
tested on: Angiotensin-converting enzyme (Rattus norvegicus) (UniProt P47820)
readout units: %
reported measurement: 91
--
smiles text: CC(C)[C@H](S)C(=O)NC1(C(=O)N[C@@H](Cc2cccs2)C(=O)O)CCCC1
tested on: Angiotensin-converting enzyme (Rattus norvegicus) (UniProt P47820)
readout units: %
reported measurement: 68
--
smiles text: CC(C)[C@H](S)C(=O)NC1(C(=O)N[C@@H](Cc2c[nH]c3ccccc23)C(=O)O)CCCC1
tested on: Angiotensin-converting enzyme (Rattus norvegicus) (UniProt P47820)
readout units: %
reported measurement: 92
--
smiles text: CC(C)[C@H](S)C(=O)NC1(C(=O)N[C@@H](Cc2ccc(O)cc2)C(=O)O)CCCCC1
tested on: Angiotensin-converting enzyme (Rattus norvegicus) (UniProt P47820)
readout units: %
reported measurement: 10
--
smiles text: O=C(CS)NC1(C(=O)N[C@@H](Cc2ccc(O)cc2)C(=O)O)CCCC1
tested on: Angiotensin-converting enzyme (Rattus norvegicus) (UniProt P47820)
readout units: %
reported measurement: 15
--
smiles text: CC(C)[C@H](S)C(=O)NC1(C(=O)N[C@@H](Cc2ccc(O)cc2)C(=O)O)CC1
tested on: Angiotensin-converting enzyme (Rattus norvegicus) (UniProt P47820)
readout units: %
reported measurement: 43

I = CC(C)[C@H](S)C(=O)NC1(C(=O)N[C@@H](Cc2ccc(O)cc2)C(=O)O)Cc2ccccc2C1
II = CC(C)[C@H](S)C(=O)NC1(C(=O)N[C@@H](Cc2ccsc2)C(=O)O)CCCC1
Identify the entry with the smaller inhibition: I or II . Reply with the label of the item you choose.
I
(I: 59%, II: 100%)
